Test system: SK-ES-1
method-description: relative viability vs DMSO control (72 h) (fraction); higher = more viable cells
particulars: 10 µM
Assign relative viability to each entry below.
Please reply with the value in numeric form only.

Hey, SK-ES-1 data for C=CC(=O)Nc1cccc(Nc2nc(Nc3ccc(N4CCN(C(C)=O)CC4)cc3OC)ncc2C(F)(F)F)c1 : relative viability came out at 0.0621

Hey, SK-ES-1 data for COc1cc2c(Oc3ccc4[nH]c(C)cc4c3F)ccnc2cc1OCC1(N)CC1 : relative viability came out at 0.0396

Hey, SK-ES-1 data for Cc1cn(-c2cc(NC(=O)c3ccc(C)c(Nc4nccc(-c5cccnc5)n4)c3)cc(C(F)(F)F)c2)cn1 : relative viability came out at 0.484

Hey, SK-ES-1 data for NC(=O)c1cccc2cn(-c3ccc([C@@H]4CCCNC4)cc3)nc12 : relative viability came out at 0.0804

====

System: KHOS-240S
method-description: relative viability vs DMSO control (72 h) (fraction); higher = more viable cells
particulars: 1.111 µM
Assign relative viability to each entry below.
Please reply with the value in numeric form only.

Hey, KHOS-240S data for NC(=O)c1cnc2[nH]ccc2c1N[C@@H]1[C@@H]2CC3C[C@H]1C[C@@](O)(C3)C2 [Peficitinib] : relative viability came out at 1.03

Hey, KHOS-240S data for COc1cc(Nc2c(C#N)cnc3cc(OCCCN4CCN(C)CC4)c(OC)cc23)c(Cl)cc1Cl [Bosutinib] : relative viability came out at 0.734

Hey, KHOS-240S data for CCN(CCCOc1ccc2c(Nc3cc(CC(=O)Nc4cccc(F)c4)[nH]n3)ncnc2c1)CCOP(=O)(O)O [Barasertib] : relative viability came out at 0.744

Hey, KHOS-240S data for C[C@@H](Oc1cc(-c2cnn(C3CCNCC3)c2)cnc1N)c1c(Cl)ccc(F)c1Cl [Crizotinib] : relative viability came out at 0.771

====

Assign relative viability to each entry below.
System: KHOS-NP
method-description: relative viability vs DMSO control (72 h) (fraction); higher = more viable cells
particulars: 0.3704 µM

Reported relative viability ( N#CCC1(n2cc(-c3ncnc4[nH]ccc34)cn2)CN(C2CCN(C(=O)c3ccnc(C(F)(F)F)c3F)CC2)C1 ) = 1.01

Reported relative viability ( COc1cc2nccc(Oc3ccc(NC(=O)C4(C(=O)Nc5ccc(F)cc5)CC4)cc3)c2cc1OC [Cabozantinib] ) = 1.07

Reported relative viability ( Cc1ccc(NC(=O)c2ccc(CN3CCN(C)CC3)cc2)cc1Nc1nccc(-c2cccnc2)n1 ) = 1.01

Reported relative viability ( NC(=O)c1cnc2[nH]ccc2c1N[C@@H]1[C@@H]2CC3C[C@H]1C[C@@](O)(C3)C2 ) = 1.07

Reported relative viability ( CN1CCN(CCOc2cc(OC3CCOCC3)c3c(Nc4c(Cl)ccc5c4OCO5)ncnc3c2)CC1 ) = 1.05

Reported relative viability ( CNC(=O)c1cc(Oc2ccc(NC(=O)Nc3ccc(Cl)c(C(F)(F)F)c3)cc2)ccn1 ) = 1.08

Reported relative viability ( N#Cc1ccnc(N2C(=O)CC[C@H]2C(=O)N(c2cncc(F)c2)[C@H](C(=O)NC2CC(F)(F)C2)c2ccccc2Cl)c1 ) = 1.03

Reported relative viability ( C[C@@H]1COC(Nc2ccc3ncnc(Nc4ccc(OCc5nccs5)c(Cl)c4)c3c2)=N1 ) = 1.06

Reported relative viability ( Cc1cn(-c2cc(NC(=O)c3ccc(C)c(Nc4nccc(-c5cccnc5)n4)c3)cc(C(F)(F)F)c2)cn1 ) = 1.03

Reported relative viability ( CO[C@@H]1[C@H](N(C)C(=O)c2ccccc2)C[C@H]2O[C@]1(C)n1c3ccccc3c3c4c(c5c6ccccc6n2c5c31)C(=O)NC4 ) = 0.893

Reported relative viability ( FC(F)(F)c1ccc(CNc2ccc(Cc3c[nH]c4ncc(Cl)cc34)cn2)cn1 ) = 1.03

Reported relative viability ( C[C@@H](Oc1cc(-c2cnn(C3CCNCC3)c2)cnc1N)c1c(Cl)ccc(F)c1Cl ) = 1.1

Reported relative viability ( COc1cc2nccc(Oc3ccc(NC(=O)NC4CC4)c(Cl)c3)c2cc1C(N)=O ) = 1.09

Reported relative viability ( Cc1ccc(C(=O)OCc2ccc([C@@H](CN)C(=O)Nc3ccc4cnccc4c3)cc2)c(C)c1 ) = 0.997

Reported relative viability ( COc1cc2c(Oc3ccc4[nH]c(C)cc4c3F)ccnc2cc1OCC1(N)CC1 ) = 1.05
